- Target Under Test: Mouse IgG1 Fc fused SARS-CoV-2 RBD (Sino Biological) (SARS-CoV-2; mouse, UniProt P0DTC2 330-518)
- Measurement Protocol: ELISA on coated SARS-CoV-2 RBD-muFc, anti-VHH-HRP, OD450 [upper graph]
Reported Metric: EC50 (read off the curve)

Req: For the binder shown here, VHH3.29 (VHH) VHH: QVQLQESGGGLVQAGGSLRLSCVASGRTFSSGGMGWFRQAPGQEREFVAGIGWAGLSSYYLDSVKGRFTISLDNAKNTVYLQMNMLKPEDTGVYYCAADDHGWSAAGMDYLGQGTQVTVSS , give the reported EC50 (read off the curve).
Resp: ~0.03 µg/mL

Req: For the binder shown here, VHH3.38 (VHH) VHH: QVQLQESGGGLVQAGGSLRLSCAASGGTFNNYAMAWFRQAPGQERELVAAMFWSGLPKYYADSVKGRFTISTDDAKNTVYLQMNGLKPEDTAVYYCAADSRGWSDVGGMDYWGKGTQVTVSS , give the reported EC50 (read off the curve).
Resp: ~0.04 µg/mL
